- experiment-summary: Log P by HPLC on reversed phase columns (EEC directive 79/831 Annex V.A8)
- Format: physicochemical
Field: LogP. Provide a value for each of the compounds that follow.

These recorded examples may help you get a feel for the data.
compound="C=C(c1cccc(F)c1F)C(O)(Cn1cnnn1)C1(Cl)CC1 (stereo not shown) [Ia-en-08]" result=2.57^[a]
compound="OC(Cc1cncc(F)c1)(Cn1cnnn1)C1(Cl)CC1 (stereo not shown) [Ia-59]" result=1.53^[a]
compound="OC(Cc1ccc(F)c(Cl)c1F)(Cn1cnnn1)C1(Cl)CC1 (stereo not shown) [Ia-38]" result=2.94^[a]
compound="OC(Cc1cc(F)c(F)cc1F)(Cn1ncnn1)C1(Cl)CC1 (stereo not shown) [Ib-16]" result=3.09^[a]
compound="COc1cccc(CC(O)(Cn2cnnn2)C2(C)CC2)c1 (stereo not shown) [Ia-61]" result=2.37^[a]

Give measured LogP for every item shown.
1. OC(Cc1cccc(C(F)(F)F)c1F)(Cn1cnnn1)C1(Cl)CC1 (stereo not shown) [Ia-71]
2. CC1(C(O)(Cc2ccccc2Br)Cn2cnnn2)CC1 (stereo not shown) [Ia-09]
3. COC(Cc1ccccc1Cl)(Cn1cnnn1)C1(Cl)CC1 (stereo not shown) [Ia-37]
4. Cc1cccc(CC(O)(Cn2cnnn2)C2(C)CC2)c1 (stereo not shown) [Ia-65]
5. OC(Cc1cccc(F)c1F)(Cn1ncnn1)C1(Cl)CC1 (stereo not shown) [Ib-03]

1. 3.04^[a]
2. 2.92^[a]
3. 3.19^[a]
4. 2.73^[a]
5. 2.82^[a]

---

- experiment-summary: Log P by HPLC on reversed phase columns (EEC directive 79/831 Annex V.A8)
- Assay type: physicochemical
Field: LogP. Provide a value for each of the molecules that follow.

These recorded examples may help you get a feel for the data.
molecule="OC(Cc1ccccc1Cl)(Cn1cnnn1)C1(F)CC1 (stereo not drawn)" readout_type=LogP result=2.40^[a]
molecule="OC(Cc1cccc(Br)c1)(Cn1cnnn1)C1(Cl)CC1 (stereo not drawn)" readout_type=LogP result=2.92^[a]
molecule="COc1ccc(CC(O)(Cn2ncnn2)C2(Cl)CC2)c(F)c1F (stereo not drawn)" readout_type=LogP result=2.94^[a]
molecule="OC(Cc1ccc(F)cc1Cl)(Cn1cnnn1)C1(Cl)CC1 (stereo not drawn)" readout_type=LogP result=2.90^[a]
molecule="CC=C(c1ccccc1F)C(O)(Cn1cnnn1)C1(Cl)CC1 (racemic)" readout_type=LogP result=2.66^[a]

Query: LogP; subject: OC(Cc1cncc(Cl)c1)(Cn1ncnn1)C1(Cl)CC1 (stereo not drawn)
2.13^[a]

---

- experiment-summary: Log P by HPLC on reversed phase columns (EEC directive 79/831 Annex V.A8)
- Assay type: physicochemical
readout-type: LogP

These recorded examples may help you get a feel for the data.
compound="O=C(Cn1ncnn1)C1(F)CC1 [XVIb-03]" readout_type=LogP result=0.86^[a]
compound="COc1cccc(CC(O)(Cn2cnnn2)C2(F)CC2)c1 (stereo not drawn) [Ia-26]" readout_type=LogP result=2.11^[a]
compound="COc1ccc(F)c(CC(O)(Cn2ncnn2)C2(Cl)CC2)c1F (stereo not drawn) [Ib-20]" readout_type=LogP result=2.86^[a]
compound="CC=C(c1cccc(Cl)c1F)C(O)(Cn1cnnn1)C1(Cl)CC1 (racemic) [Ia-en-05]" readout_type=LogP result=3.00^[a]
compound="CC1(C(O)(Cc2ccccc2)Cn2cnnn2)CC1 (stereo not drawn) [Ia-10]" readout_type=LogP result=2.35^[a]

Give measured LogP for every item shown.
1. CC1(C(=O)Cn2ncnn2)CC1 [XVIb-02]
2. OC(Cc1ccc(F)c(Cl)c1F)(Cn1ncnn1)C1(Cl)CC1 (stereo not drawn) [Ib-12]
3. OC(Cc1ccccc1Br)(Cn1cnnn1)C1(Cl)CC1 (stereo not drawn) [Ia-24]
4. OC(Cc1cccc(Cl)c1F)(Cn1cnnn1)C1(Cl)CC1 (stereo not drawn) [Ia-02]
5. CC1(C(O)(Cc2ccccc2Cl)Cn2cnnn2)CC1 (stereo not drawn) [Ia-08]

1.05^[a]
3.37^[a]
2.88^[a]
2.72^[a]
2.80^[a]

Give measured LogP for every item shown.
1. CC1(C(O)(Cc2ccccc2C(F)(F)F)Cn2cnnn2)CC1 (stereo not drawn) [Ia-11]
2. COc1ccc(CC(O)(Cn2cnnn2)C2(C)CC2)cc1 (stereo not drawn) [Ia-34]
3. OC(Cc1c(F)cc(F)cc1F)(Cn1cnnn1)C1(Cl)CC1 (stereo not drawn) [Ia-35]
4. OC(Cc1ccc(F)c(F)c1)(Cn1cnnn1)C1(Cl)CC1 (stereo not drawn) [Ia-56]
5. OC(Cc1cncc(Cl)c1)(Cn1cnnn1)C1(Cl)CC1 (stereo not drawn) [Ia-74]

2.94^[a]
2.35^[a]
2.64^[a]
2.64^[a]
1.86^[a]

Give measured LogP for every item shown.
1. OC(Cc1ccccc1OC(F)(F)F)(Cn1cnnn1)C1(Cl)CC1 (stereo not drawn) [Ia-32]
2. C=C(c1cccc(Cl)c1F)C(O)(Cn1cnnn1)C1(Cl)CC1 (stereo not drawn) [Ia-en-10]

1. 3.06^[a]
2. 2.82^[a]

Give measured LogP for every item shown.
1. Cc1ccc(CC(O)(Cn2cnnn2)C2(Cl)CC2)c(F)c1F (stereo not drawn) [Ia-55]
2. OC(Cc1c(F)ccc(F)c1F)(Cn1cnnn1)C1(Cl)CC1 (stereo not drawn) [Ia-54]
3. Cc1ccc(CC(O)(Cn2ncnn2)C2(Cl)CC2)c(F)c1F (stereo not drawn) [Ib-21]
4. OC(Cc1cc(Cl)ccc1F)(Cn1cnnn1)C1(Cl)CC1 (stereo not drawn) [Ia-29]
5. Cc1ccc(F)c(CC(O)(Cn2cnnn2)C2(Cl)CC2)c1F (stereo not drawn) [Ia-36]
6. Cc1ccc(F)c(CC(O)(Cn2ncnn2)C2(Cl)CC2)c1F (stereo not drawn) [Ib-09]
7. OC(Cc1c(F)cc(Cl)cc1F)(Cn1cnnn1)C1(Cl)CC1 (stereo not drawn) [Ia-75]
8. OC(Cc1cc(F)cc(F)c1)(Cn1cnnn1)C1(Cl)CC1 (stereo not drawn) [Ia-31]

1: 2.92^[a]; 2: 2.60^[a]; 3: 3.33^[a]; 4: 2.86^[a]; 5: 2.90^[a]; 6: 3.37^[a]; 7: 2.98^[a]; 8: 2.63^[a]

Give measured LogP for every item shown.
1. OC(Cc1ccccc1Br)(Cn1cnnn1)C1(F)CC1 (stereo not drawn) [Ia-21]
2. OC(Cc1cccc(Br)c1F)(Cn1cnnn1)C1(Cl)CC1 (stereo not drawn) [Ia-41]
3. OC(Cc1ccc(F)c(F)c1)(Cn1ncnn1)C1(Cl)CC1 (stereo not drawn) [Ib-24]
4. CC(c1cc(F)ccc1F)C(O)(Cn1cnnn1)C1(Cl)CC1 (single isomer, unassigned) [Ia-16]
5. OC(Cc1ccncc1Cl)(Cn1ncnn1)C1(Cl)CC1 (stereo not drawn) [Ib-22]
6. OC(Cc1ccc(F)c(Cl)c1)(Cn1ncnn1)C1(Cl)CC1 (stereo not drawn) [Ib-18]
7. CC=C(c1cccc(F)c1F)C(O)(Cn1cnnn1)C1(Cl)CC1 (racemic) [Ia-en-06]

2.49^[a]
2.92^[a]
3.04^[a]
2.66^[a]
1.96^[b]
3.33^[a]
2.82^[a]

Give measured LogP for every item shown.
1. OC(Cc1ccccc1C(F)(F)F)(Cn1cnnn1)C1(F)CC1 (stereo not drawn) [Ia-76]
2. CC(c1cc(F)ccc1F)C(O)(Cn1cnnn1)C1(Cl)CC1 (single isomer, unassigned) [Ia-18]
3. C=C(c1cc(F)ccc1F)C(O)(Cn1cnnn1)C1(Cl)CC1 (stereo not drawn) [Ia-en-01]
4. Cc1cccc(CC(O)(Cn2cnnn2)C2(Cl)CC2)c1 (stereo not drawn) [Ia-64]
5. OC(Cc1c(F)cccc1Cl)(Cn1cnnn1)C1(Cl)CC1 (stereo not drawn) [Ia-72]

1. 2.71^[a]
2. 2.92^[a]
3. 2.54^[a]
4. 2.78^[a]
5. 2.90^[a]

Give measured LogP for every item shown.
1. OC(Cc1ccc(F)cc1F)(Cn1ncnn1)C1(Cl)CC1 (stereo not drawn) [Ib-17]
2. COc1ccc(CC(O)(Cn2cnnn2)C2(Cl)CC2)cc1 (stereo not drawn) [Ia-58]
3. COc1ccc(CC(O)(Cn2cnnn2)C2(Cl)CC2)c(F)c1F (stereo not drawn) [Ia-48]
4. OC(Cc1cccc(Br)c1)(Cn1cnnn1)C1(F)CC1 (stereo not drawn) [Ia-23]
5. C=C(c1ccccc1F)C(O)(Cn1ncnn1)C1(Cl)CC1 (stereo not drawn) [Ib-en-01]

["2.96^[a]", "2.40^[a]", "2.59^[a]", "2.59^[a]", "2.96^[a]"]

---

Field: LogP. Provide a value for each of the compounds that follow.
- experiment-summary: Log P by HPLC on reversed phase columns (EEC directive 79/831 Annex V.A8)
- Assay type: physicochemical

These recorded examples may help you get a feel for the data.
compound="C=C(c1ccccc1Cl)C(O)(Cn1cnnn1)C1(Cl)CC1 (centres unmarked)" readout_type=LogP result=2.71^[a]
compound="COc1ccc(F)c(CC(O)(Cn2cnnn2)C2(Cl)CC2)c1F (centres unmarked)" readout_type=LogP result=2.51^[a]
compound="OC(Cc1cc(F)ccc1F)(Cn1cnnn1)C1(Cl)CC1 (centres unmarked)" readout_type=LogP result=2.52^[a]
compound="OC(Cc1c(F)ccc(F)c1F)(Cn1ncnn1)C1(Cl)CC1 (centres unmarked)" readout_type=LogP result=3.02^[a]
compound="C=C(c1ccccc1)C(O)(Cn1cnnn1)C1(Cl)CC1 (centres unmarked)" readout_type=LogP result=2.46^[a]

Give measured LogP for every item shown.
1. OC(Cc1cccnc1F)(Cn1ncnn1)C1(Cl)CC1 (centres unmarked)
2. OC(Cc1ccccc1)(Cn1cnnn1)C1(F)CC1 (centres unmarked)
3. Cc1ccccc1CC(O)(Cn1cnnn1)C1(Cl)CC1 (centres unmarked)
4. OC(Cc1cccc(Cl)c1)(Cn1cnnn1)C1(Cl)CC1 (centres unmarked)
5. OC(Cc1ccc(Br)cc1F)(Cn1cnnn1)C1(Cl)CC1 (centres unmarked)
6. Cc1ccc(CC(O)(Cn2cnnn2)C2(C)CC2)cc1 (centres unmarked)

1. 1.91^[a]
2. 2.08^[a]
3. 2.77^[a]
4. 2.82^[a]
5. 3.23^[a]
6. 2.73^[a]
